Data provenance is patent US20210101879A1.

biological target: BACE-1 (Homo sapiens (Human), UniProt P56817); test: cell-free BACE enzyme assay with P5-P5′ substrate; type: biochemical; conditions: cell-free BACE assay
Sequence (P56817 46-501): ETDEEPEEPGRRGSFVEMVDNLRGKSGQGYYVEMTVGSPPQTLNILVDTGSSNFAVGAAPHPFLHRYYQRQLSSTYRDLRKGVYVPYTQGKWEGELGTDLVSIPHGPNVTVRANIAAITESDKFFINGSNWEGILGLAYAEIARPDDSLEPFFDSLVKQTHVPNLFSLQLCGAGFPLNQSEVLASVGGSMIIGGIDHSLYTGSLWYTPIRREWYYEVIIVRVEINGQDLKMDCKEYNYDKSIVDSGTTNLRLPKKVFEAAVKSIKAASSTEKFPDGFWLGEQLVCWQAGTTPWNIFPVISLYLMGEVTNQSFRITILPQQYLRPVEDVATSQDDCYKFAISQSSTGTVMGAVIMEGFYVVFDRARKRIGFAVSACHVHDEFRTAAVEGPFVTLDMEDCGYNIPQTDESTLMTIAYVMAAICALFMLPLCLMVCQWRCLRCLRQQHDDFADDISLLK
pIC50: −log10 of the molar value.

molecule | pIC50
Cc1cc(C2(c3ccc(F)c(-c4cncnc4)c3)N=C(N)N(C)C2=O)ccc1OC(F)F (stereo not shown) | 7.89
Cc1cc(C2(c3cccc(-c4cnc(N)nc4)c3)N=C(N)N(C)C2=O)ccc1OC(F)F (stereo not shown) | 7.37
CN1C(=O)C(c2ccc(OC(F)F)cc2)(c2cccc(-c3cncnc3)c2)N=C1N (stereo not shown) | 7.89
Cc1cc(C2(c3cccc(-c4cncnc4)c3)N=C(N)N(C)C2=O)ccc1OC(F)F (racemic) | 7.66
